target: D(1A) dopamine receptor (Homo sapiens) (UniProt P21728); test: Antagonist of Human D 1 Dopamine Receptor: qHTS; details: HEK293 TREx D1 cells, calcium flux, dopamine EC80; at 10 µM; hits give low values; note: % is set by controls: 0 for no effect and ±100 for the full control effect
Sequence (P21728 whole entry, looked up): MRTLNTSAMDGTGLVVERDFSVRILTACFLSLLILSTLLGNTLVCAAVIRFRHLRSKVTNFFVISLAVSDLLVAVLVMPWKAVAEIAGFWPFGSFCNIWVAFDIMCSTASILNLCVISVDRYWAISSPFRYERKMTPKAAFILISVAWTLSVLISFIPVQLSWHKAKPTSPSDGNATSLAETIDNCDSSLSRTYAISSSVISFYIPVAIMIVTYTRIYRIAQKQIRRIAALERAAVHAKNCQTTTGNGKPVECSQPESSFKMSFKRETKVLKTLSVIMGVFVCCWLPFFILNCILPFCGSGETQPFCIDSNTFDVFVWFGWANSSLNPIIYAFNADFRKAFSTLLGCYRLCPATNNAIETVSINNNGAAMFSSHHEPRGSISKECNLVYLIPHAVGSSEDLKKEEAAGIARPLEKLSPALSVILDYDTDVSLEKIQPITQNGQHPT
The whole screen tested about 360,000 compounds, of which about 11,000 (3.1%) were called active. The entries come from a sample that favours actives as a whole.
measure: activity change, negative = inhibition (%)
Give bare numbers, in %.

molecule: CC(=NC1CCN(Cc2ccccc2)CC1)c1c(O)n(C)c(=O)n(C)c1=O
measure: activity change, negative = inhibition
measureUnit: %
observedResult: -0.272

State recorded activity change, negative = inhibition for all listed molecules.
1. COc1ccc(-c2nc(CS(=O)CC(=O)N3CCC4(CC3)OCCO4)c(C)o2)cc1 (configuration not stated)
2. Cc1cc(C(=O)OCC(=O)Nc2c(F)cccc2F)c(C)n1C1CC1

1: -3.25; 2: 2.31

State recorded activity change, negative = inhibition for all listed molecules.
1. Cc1ccc(-n2c(/C=C/c3cccc(C(F)(F)F)c3)nc3ccccc3c2=O)cc1
2. CNC(=O)N(C)c1nnc(C(C)(C)C)s1
3. O=C(CCNS(=O)(=O)c1ccccc1)Nc1ccc(Cl)cc1C(=O)c1ccccc1

1. 11.5
2. 9.77
3. -6.99

---

molecular target: D(1A) dopamine receptor (Homo sapiens); experiment: Antagonist of Human D 1 Dopamine Receptor: qHTS; conditions: HEK293 TREx D1 cells, calcium flux, dopamine EC80; at 10 µM; note: % is set by controls: 0 for no effect and ±100 for the full control effect
Out of some 360,000 compounds screened, about 11,000 (3.1%) were called active. Cut-off read from the data, not from the text of the source: active = activity change below about -30%; inactive = the rest. Shown is part of a subset that was picked to be rich in actives.
Respond using exactly one of the listed classes: active, inactive

compound: Cc1ccccc1NC(=O)COC(=O)c1cc(C)n(C2CC2)c1C
discreteLabel: inactive
--
compound: NCC(O)c1ccc(O)cc1 (stereo unspecified)
discreteLabel: active

// return assay outcome for CC1=CC(=Cc2sc3ccccc3[n+]2C)C=C(C)O1 active

// return assay outcome for COC(=O)C1=C(c2ccc(F)cc2F)C[C@@H]2CC[C@H]1N2C(=O)NC1CC1 inactive

---

target: D(1A) dopamine receptor (Homo sapiens); assay: Antagonist of Human D 1 Dopamine Receptor: qHTS; conditions: HEK293 TREx D1 cells, calcium flux, dopamine EC80; at 10 µM; hits give low values; note: % is set by controls: 0 for no effect and ±100 for the full control effect
The whole screen tested about 360,000 compounds, of which about 11,000 (3.1%) were called active. Shown is part of a subset that was picked to be rich in actives.
Provide the recorded activity change, negative = inhibition for the entries that follow.
Answers are plain numbers, in %.

compound: CC(C)Oc1cccc(C(=O)C2CCCN(C3CCOCC3)C2)c1 (configuration not stated)
observedResult: -26.6

State recorded activity change, negative = inhibition for all listed compounds.
1. CCN1C(=O)C(=Cc2c(C)n(CC(=O)NCC3CCCO3)c3ccccc23)C(=O)N(CC)C1=S (configuration not stated)
2. CN1CCN(C(=S)SCC(=O)Nc2ccc(Cl)cc2C(=O)c2ccccc2)CC1
3. CC(C)n1c(=O)c(C=Nc2ccc(Br)cc2)c(O)n(Cc2ccco2)c1=O
4. COC(=O)C1=C(c2ccc3ccccc3c2)C[C@@H]2CC[C@H]1N2C(=O)NCCO
5. COc1ccc(CNCCc2c[nH]c3ccccc23)cc1OC
6. Cc1nn(-c2ccccc2)c(C)c1NC(=O)COC(=O)Cc1ccccc1
7. O=C(CCN1CCCCC1)NCC(=O)Nc1ccc(Br)cc1C(=O)c1ccccc1
8. COC(=O)C1=C(c2ccc(-c3ccccc3)c(F)c2)C[C@@H]2CC[C@H]1N2C(=O)NCc1ccc(F)cc1

1. -0.95
2. -39.4
3. 14
4. -40.5
5. -8.11
6. -0.424
7. -20.3
8. -0.711

State recorded activity change, negative = inhibition for all listed compounds.
1. Cc1ccc(NC(=O)N(Cc2ccc3c(c2)OCO3)C2CCN(Cc3ccccc3)CC2)cc1F
2. COC(=O)C1=C(c2ccc(Cl)c(C(F)(F)F)c2)C[C@@H]2CC[C@H]1N2C(=O)NC(C)C
3. COC(=O)C1=C(c2cccc(OCc3ccccc3)c2)C[C@@H]2CC[C@H]1N2C(=O)NCc1ccc(Br)cc1
4. CC(C)c1ccc(-n2c(O)c(/C=N/N3CCOCC3)c(=O)[nH]c2=S)cc1
5. CCOCCc1c(O)[nH]c(=S)[nH]c1=O
6. O=C(Nc1ccc(Cl)cc1C(=O)c1ccccc1)c1cc(Cl)cc(Cl)c1

[2.05, -3.99, -2.72, 21.3, -33.1, 23.8]

State recorded activity change, negative = inhibition for all listed compounds.
1. C/C(CCc1c[nH]c2ccccc12)=N\O
2. Cn1c(O)c(C=Nc2ccc3c(c2)CCC3)c(=O)n(C)c1=O

1. 1.61
2. -5.53

State recorded activity change, negative = inhibition for all listed compounds.
1. OC(Cn1c2ccccc2c2ccccc21)C[n+]1ccccc1 (configuration not stated)
2. COc1c(O)ccc2c1-c1c3c(cc4c1C(C2)N(C)CC4)OCO3 (configuration not stated)
3. COC(=O)C1=C(c2ccc(F)cc2OCc2ccccc2)C[C@@H]2CC[C@H]1N2C(=O)NCc1ccc(Cl)cc1

1: 13.9; 2: -68; 3: 12.1

State recorded activity change, negative = inhibition for all listed compounds.
1. O=c1[nH]c(=S)n(C2CC2)c(O)c1/C=N/N1CCOCC1
2. Cn1cc(C(=O)OCC(=O)N2CCCC2)c2ccccc21
3. CSc1nc2ccc(C)cc2c(=O)n1-c1cccnc1
4. COc1ccccc1N=C1SCCCN1C
5. CC(Cc1ccccc1)NCCC(c1ccccc1)c1ccccc1 (configuration not stated)
6. CN1CCc2cc3c(cc2[C@H]1[C@@H]1OC(=O)c2c1ccc1c2OCO1)OCO3
7. CC(C)c1c(CN(C)C(C)Cc2ccccc2)n(C)n(-c2ccccc2)c1=O (configuration not stated)
8. C[C@]12CC[C@H](O)C[C@H]1CC[C@@H]1C2CC[C@]2(C)[C@@H](C3=CC(=O)OC3)[C@@H](O)C[C@]12O (some centres not stated)

[-3.33, -0.659, 7.08, -10.1, 15.9, -19.5, -2.93, -17.2]

State recorded activity change, negative = inhibition for all listed compounds.
1. CNC(=O)O/N=C(\N)Cc1csc2ccccc12
2. CN1CCN(C(=O)COc2ccc(C(C)(C)C)cc2Br)CC1
3. CCc1nc2ccccc2c(=O)n1-c1cccc(OC)c1
4. Cc1cccc(-n2c(O)c(/C=N/N3CCOCC3)c(=O)[nH]c2=S)c1

[-21.2, -15.7, 2.19, -42.1]

Taken from PubChem BioAssay AID504652.
